B1: library; a variant is named by its letters at N, in order (parent)
chain: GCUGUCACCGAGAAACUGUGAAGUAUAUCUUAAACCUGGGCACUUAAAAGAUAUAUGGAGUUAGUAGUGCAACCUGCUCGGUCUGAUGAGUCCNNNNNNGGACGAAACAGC

Variants of: B1
Test: normalized RNA/DNA level without ligand (relative to sTRSVctl = 100) (log10 (% of sTRSVctl)); HEK293T; ligand: cyclic di-GMP (c-di-GMP-II aptamer); higher = less ribozyme self-cleavage, higher mRNA level
Details: reporter: mCherry (pCS4076), ligand present: no
normalized RNA/DNA level without ligand (log10): recorded values

Below, each entry is followed by its recorded normalized RNA/DNA level without ligand (log10) result.
- residue_change: "AAUCUA"
  experimental_value: 1.55
- residue_change: "UAACAU"
  experimental_value: 1.62
- residue_change: "CAAUAA"
  experimental_value: 1.25

Inquiry: Recorded normalized RNA/DNA level without ligand (log10) of `GAGUUG` , please.
Reply text: 1.8
